# Tested on: SARS-COV2-S1 RBD (mouse IgG2Fc tag) (SARS-CoV-2, UniProt P0DTC2 319-537)
pIC50: −log10 of the molar value.

{"Binder": "variant 6-45 (Fc fusion) VHH: EVQLVESGGGLVQPGGSLRLSCAASGNMFSINAMGWFRQAPGKEREFVTLISWSSGRTSYADSVKGRFTISADNSKNTAYLQMNSLKPEDTAVYYCASLGYCSGGSCFDYWGQGTLVTVSS", "pIC50": 8.94}
{"Binder": "variant 6-38 (Fc fusion) VHH: EVQLVESGGGLVQPGGSLRLSCAASGNTFSGGFMGWFRQAPGKEREFVAVISSLSSKSYADSVKGRFTISADNSKNTAYLQMNSLKPEDTAVYYCAKVDSGYDYWGQGTLVTVSS", "pIC50": 8.71}
{"Binder": "variant 6-67 (Fc fusion) VHH: EVQLVESGGGLVQPGGSLRLSCAASGSFSNYAMGWFRQAPGKEREFVAAISSSGALTSYADSVKGRFTISADNSKNTAYLQMNSLKPEDTAVYYCWIVGPGPLDGMDVWGQGTLVTVSS", "pIC50": 8.42}
{"Binder": "variant 6-34 (Fc fusion) VHH: EVQLVESGGGLVQPGGSLRLSCAASGSAFRSNAMGWFRQAPGKEREFVAHISWSSKSTYYADSVKGRFTISADNSKNTAYLQMNSLKPEDTAVYYCATYCSSTSCFDYWGQGTLVTVSS", "pIC50": 8.08}
